# credit: patent US20140135310A1

Molecular target: serotonin transporter (SERT) (Homo sapiens)
Construct: expressed in transfected cells; host or cells: CHO cells
Sequence (P31645 whole entry): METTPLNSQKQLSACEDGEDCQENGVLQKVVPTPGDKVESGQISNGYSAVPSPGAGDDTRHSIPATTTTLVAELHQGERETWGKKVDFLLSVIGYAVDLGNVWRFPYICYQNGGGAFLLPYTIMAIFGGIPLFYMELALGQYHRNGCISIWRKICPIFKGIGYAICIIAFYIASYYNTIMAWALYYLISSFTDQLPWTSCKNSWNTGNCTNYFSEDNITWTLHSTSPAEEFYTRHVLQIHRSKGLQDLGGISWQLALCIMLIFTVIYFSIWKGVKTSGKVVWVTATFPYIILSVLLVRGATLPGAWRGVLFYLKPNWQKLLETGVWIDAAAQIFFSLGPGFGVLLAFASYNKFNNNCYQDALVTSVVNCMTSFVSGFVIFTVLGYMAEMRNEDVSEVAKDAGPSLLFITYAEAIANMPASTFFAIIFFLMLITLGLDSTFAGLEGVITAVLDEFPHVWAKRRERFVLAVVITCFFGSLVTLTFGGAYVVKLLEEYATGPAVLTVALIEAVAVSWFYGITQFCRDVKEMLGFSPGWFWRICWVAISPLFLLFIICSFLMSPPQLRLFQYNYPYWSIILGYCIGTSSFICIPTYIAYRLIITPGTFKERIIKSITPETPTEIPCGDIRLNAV
Test: Radioligand binding assay, serotonin transporter (SERT)
Details: binding assay, test compound 1×10^−6 M
Catalogue of inhibition at 1 µM readings, one per entry.
recordedEndpoint: inhibition at 1 µM (%)

{"columns": ["compound", "measurementTarget", "recordedEndpoint", "unit", "obsValue"],
 "data": [
  ["O=S(=O)(NC1CCN(CCCc2noc3cc(F)ccc23)C1)c1ccc2c(c1)OCO2 (centres unmarked)", "serotonin transporter (SERT) (Homo sapiens)", "inhibition at 1 µM", "%", 1],
  ["O=S(=O)(NCC1CN(CCOc2cccc3c2OCCO3)C1)c1ccc(Br)cc1", "serotonin transporter (SERT) (Homo sapiens)", "inhibition at 1 µM", "%", 23],
  ["O=S(=O)(NCC1CN(CCOc2cccc3ccccc23)C1)c1ccc(F)c(F)c1", "serotonin transporter (SERT) (Homo sapiens)", "inhibition at 1 µM", "%", 50],
  ["CC(C)(C)c1ccc(S(=O)(=O)NCC2CN(CCCc3noc4cc(F)ccc34)C2)cc1", "serotonin transporter (SERT) (Homo sapiens)", "inhibition at 1 µM", "%", -10],
  ["Cc1ccc2sc(S(=O)(=O)N[C@@H]3CCN(CCCc4noc5cc(F)ccc45)C3)cc2c1", "serotonin transporter (SERT) (Homo sapiens)", "inhibition at 1 µM", "%", 61],
  ["O=S(=O)(NCC1CCN(CCCc2noc3cc(F)ccc23)C1)c1ccc(Cl)cc1 (centres unmarked)", "serotonin transporter (SERT) (Homo sapiens)", "inhibition at 1 µM", "%", 37],
  ["O=S(=O)(NC1CCN(CCCc2c[nH]c3ccc(Cl)cc23)C1)c1ccc(F)cc1 (centres unmarked)", "serotonin transporter (SERT) (Homo sapiens)", "inhibition at 1 µM", "%", 78],
  ["O=S(=O)(NC1CCN(CCCc2c[nH]c3ccc(Cl)cc23)C1)c1cccc(Cl)c1 (centres unmarked)", "serotonin transporter (SERT) (Homo sapiens)", "inhibition at 1 µM", "%", 104]
]}

----------
Biological target: 5-HT6 receptor (Homo sapiens)
Construct: purchased PerkinElmer
Sequence (P50406 whole entry): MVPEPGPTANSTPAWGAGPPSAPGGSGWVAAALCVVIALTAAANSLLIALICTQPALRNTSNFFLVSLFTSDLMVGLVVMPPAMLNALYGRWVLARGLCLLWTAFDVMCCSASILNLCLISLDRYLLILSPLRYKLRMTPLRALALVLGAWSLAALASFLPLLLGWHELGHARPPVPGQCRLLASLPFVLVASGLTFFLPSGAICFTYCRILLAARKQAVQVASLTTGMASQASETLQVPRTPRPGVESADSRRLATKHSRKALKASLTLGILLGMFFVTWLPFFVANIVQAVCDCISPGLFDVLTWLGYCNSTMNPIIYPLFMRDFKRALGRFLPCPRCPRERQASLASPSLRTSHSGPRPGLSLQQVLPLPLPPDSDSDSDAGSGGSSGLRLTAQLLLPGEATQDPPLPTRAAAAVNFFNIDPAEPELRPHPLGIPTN
Test: Radioligand binding assay, serotoninergic 5-HT6 receptors;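 note: test compound at 1 µM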
Details: binding assay result in %, Table 5a

{"columns": ["compound", "measurementTarget", "inhibition at 1 µM / %"],
 "data": [
  ["O=S(=O)(NC1CN(CCOc2cccc3[nH]ccc23)C1)c1cccc2ccccc12", "5-HT6 receptor (Homo sapiens)", 34],
  ["Cc1cc(S(=O)(=O)NCC2CCN(CCOc3cccc4c3OCCO4)C2)c(C)s1 (centres unmarked)", "5-HT6 receptor (Homo sapiens)", 19],
  ["Cc1cccc(S(=O)(=O)NC2CN(CCOc3cccc4[nH]ccc34)C2)c1", "5-HT6 receptor (Homo sapiens)", 17],
  ["O=S(=O)(NCC1CN(CCOc2cccc3ccccc23)C1)c1cc2ccccc2s1", "5-HT6 receptor (Homo sapiens)", 87],
  ["O=S(=O)(NCC1CN(CCOc2cccc3c2OCCO3)C1)c1ccc(Cl)c(Cl)c1", "5-HT6 receptor (Homo sapiens)", 81],
  ["O=S(=O)(NCC1CN(CCOc2cccc3c2OCCO3)C1)c1ccc(Cl)s1", "5-HT6 receptor (Homo sapiens)", 30],
  ["O=S(=O)(NCC1CCN(CCCc2noc3cc(F)ccc23)C1)c1ccccc1 (centres unmarked)", "5-HT6 receptor (Homo sapiens)", 57],
  ["O=S(=O)(NC1CCN(CCCc2noc3cc(F)ccc23)C1)c1ccc(Cl)c(F)c1 (centres unmarked)", "5-HT6 receptor (Homo sapiens)", 94],
  ["O=S(=O)(NC1CN(CCOc2cccc3[nH]ccc23)C1)c1ccccc1", "5-HT6 receptor (Homo sapiens)", 0],
  ["Cn1ccc2cc(S(=O)(=O)NCC3CN(CCCc4noc5cc(F)ccc45)C3)ccc21", "5-HT6 receptor (Homo sapiens)", 65],
  ["O=S(=O)(NC1CCN(CCCc2noc3cc(F)ccc23)C1)c1ccc(Cl)s1 (centres unmarked)", "5-HT6 receptor (Homo sapiens)", 72],
  ["Cc1cc(S(=O)(=O)N[C@H]2CCN(CCCc3noc4cc(F)ccc34)C2)c(C)s1", "5-HT6 receptor (Homo sapiens)", 94],
  ["Cc1cccc(S(=O)(=O)NCC2CN(CCCc3noc4cc(F)ccc34)C2)c1", "5-HT6 receptor (Homo sapiens)", 37],
  ["O=S(=O)(NC1CCN(CCCc2noc3cc(F)ccc23)CC1)c1ccc(-c2ccccc2)cc1", "5-HT6 receptor (Homo sapiens)", 68],
  ["O=S(=O)(NCC1CN(CCOc2cccc3ccccc23)C1)c1cc2ccc(Cl)cc2s1", "5-HT6 receptor (Homo sapiens)", 94],
  ["O=S(=O)(NC1CCN(CCCc2c[nH]c3ccc(Cl)cc23)C1)c1cccc(F)c1 (centres unmarked)", "5-HT6 receptor (Homo sapiens)", 93],
  ["O=S(=O)(NCC1CCN(CCOc2nsc3ccccc23)C1)c1cccc(O)c1 (centres unmarked)", "5-HT6 receptor (Homo sapiens)", 87]
]}
